The values you see were collected from ChEMBL document CHEMBL4699496.

test: Binding affinity to alpha-glcosidase (unknown origin) using p-NPG as substrate; parameters: species or system Homo sapiens
measurement-type: Ki (µM)

1. Cc1cc(C(=O)C(C)C)c(O)c(Br)c1OC(=O)CI : 0.65
2. CCCCCCCC(=O)c1cc(C)c(OC(=O)CI)cc1O : 1.62

----------
assay: Inhibition of alpha-glucosidase (unknown origin); set-up: species or system Homo sapiens; conditions: read-out: IC50
The following molecules are shown together with reported IC50 values.
measurement-type: IC50 (µM)

1) Cc1cc(C(=O)C(C)C)c(O)cc1OC(=O)c1ccc(Br)cc1 : 26
2) Cc1cc(C(=O)C(C)C)c(O)cc1OC(=O)c1ccccc1Cl : 27.4
3) Cc1cc(C(=O)C(C)C)c(O)c(Br)c1OC(=O)c1ccc([N+](=O)[O-])cc1 : 20.6
4) CC(C)C(=O)c1cc(Br)c(OC(=O)CI)cc1O : 11.3
5) CCCC(=O)Oc1cc(O)c(C(=O)C(C)C)cc1C : 43.2
6) CCCCCCCC(=O)c1cc(C)c(O)cc1O : 35.6
7) CC(C)C(=O)Oc1ccc(C(=O)C(C)C)c(O)c1 : 72.5
8) CCCCCCCC(=O)c1ccc(O)cc1O : 74.6
9) CCCCC(=O)Oc1cc(O)c(C(=O)C(C)C)cc1C : 24.7
10) CCCCCCCCCC(=O)Oc1cc(O)c(C(=O)C(C)C)cc1C : 8.45
11) Cc1cc(C(=O)C(C)C)c(O)c(Br)c1OC(=O)c1ccc(F)cc1 : 15.7
12) Cc1cc(C(=O)C(C)C)c(O)c(Br)c1OC(=O)C(C)(C)C : 1.86
13) CCC(=O)c1cc(C)c(OC(=O)CI)cc1O : 6.22
14) CC(C)C(=O)c1cc(Br)c(O)cc1O : 29
15) C[C@H]1O[C@H](O[C@H]2[C@H](O)[C@@H](O)[C@@H](O[C@H]3[C@H](O)[C@@H](O)C(O)O[C@@H]3CO)O[C@@H]2CO)[C@H](O)[C@@H](O)[C@@H]1N[C@H]1C=C(CO)[C@@H](O)[C@H](O)[C@H]1O (stereo partly drawn) : 57
16) CCCCCCC(=O)c1cc(C)c(O)cc1O : 40.9
17) Cc1cc(C(=O)C(C)C)c(O)cc1OC(=O)CCl : 140
18) COc1ccc(C(=O)Oc2c(C)cc(C(=O)C(C)C)c(O)c2Br)cc1 : 27.6
19) Cc1cc(C(=O)C(C)C)c(O)cc1OC(=O)c1cccc(Cl)c1 : 28.1
20) CCCCCC(=O)c1cc(C)c(O)cc1O : 66.5
21) Cc1cc(C(=O)C(C)C)c(O)cc1OC(=O)C(C)(C)C : 16
22) Cc1cc(C(=O)C(C)C)c(O)cc1OC(=O)CI : 4.27
23) CCCCCCC(=O)Oc1cc(O)c(C(=O)C(C)C)cc1C : 5.93

----------
test: Inhibition of alpha-glucosidase (unknown origin); parameters: species or system Homo sapiens; conditions: read-out: IC50
pIC50: −log10 of the molar value.
Label condition met for high-side pIC50 (at or above 5) and condition not met for low-side pIC50 (below it).

1) Cc1cc(C(=O)C(C)C)c(O)cc1OC(=O)CBr : condition not met
2) CCCCCCC(=O)c1ccc(O)cc1O : condition not met
3) CC(C)C(=O)c1ccc(OC(=O)C(C)(C)C)cc1O : condition not met
4) Cc1cc(C(=O)C(C)C)c(O)c(Br)c1OC(=O)CI : condition met
5) Cc1cc(C(=O)C(C)C)c(O)c(Br)c1OC(=O)c1ccc(I)cc1 : condition not met
6) Cc1ccc(C(=O)Oc2c(C)cc(C(=O)C(C)C)c(O)c2Br)cc1 : condition not met

----------
test: Inhibition of alpha-glucosidase (unknown origin); design: species or system Homo sapiens; conditions: read-out: IC50
pIC50: −log10 of the molar value.
measurement-type: pIC50

1. Cc1cc(C(=O)C(C)C)c(O)c(Br)c1O : 4.68
2. CCCCCC(=O)c1ccc(OC(=O)CI)cc1O : 5.05
3. CC(C)C(=O)c1cc(Br)c(OC(=O)CCl)cc1O : 3.84
4. CC(C)C(=O)c1ccc(OC(=O)CBr)cc1O : 4.45
5. Cc1cc(C(=O)C(C)C)c(O)c(Br)c1OC(=O)CBr : 4.92
6. Cc1cc(C(=O)C(C)C)c(O)cc1OC(=O)Cc1ccccc1 : 4.59
